- tested-target: human androgen receptor (AR) (Homo sapiens)
- Construct: expressed in transfected cells; host or cells: mouse myoblast C2C12 cells, transiently co-transfected with FuGENE
- Sequence (P10275 1-920): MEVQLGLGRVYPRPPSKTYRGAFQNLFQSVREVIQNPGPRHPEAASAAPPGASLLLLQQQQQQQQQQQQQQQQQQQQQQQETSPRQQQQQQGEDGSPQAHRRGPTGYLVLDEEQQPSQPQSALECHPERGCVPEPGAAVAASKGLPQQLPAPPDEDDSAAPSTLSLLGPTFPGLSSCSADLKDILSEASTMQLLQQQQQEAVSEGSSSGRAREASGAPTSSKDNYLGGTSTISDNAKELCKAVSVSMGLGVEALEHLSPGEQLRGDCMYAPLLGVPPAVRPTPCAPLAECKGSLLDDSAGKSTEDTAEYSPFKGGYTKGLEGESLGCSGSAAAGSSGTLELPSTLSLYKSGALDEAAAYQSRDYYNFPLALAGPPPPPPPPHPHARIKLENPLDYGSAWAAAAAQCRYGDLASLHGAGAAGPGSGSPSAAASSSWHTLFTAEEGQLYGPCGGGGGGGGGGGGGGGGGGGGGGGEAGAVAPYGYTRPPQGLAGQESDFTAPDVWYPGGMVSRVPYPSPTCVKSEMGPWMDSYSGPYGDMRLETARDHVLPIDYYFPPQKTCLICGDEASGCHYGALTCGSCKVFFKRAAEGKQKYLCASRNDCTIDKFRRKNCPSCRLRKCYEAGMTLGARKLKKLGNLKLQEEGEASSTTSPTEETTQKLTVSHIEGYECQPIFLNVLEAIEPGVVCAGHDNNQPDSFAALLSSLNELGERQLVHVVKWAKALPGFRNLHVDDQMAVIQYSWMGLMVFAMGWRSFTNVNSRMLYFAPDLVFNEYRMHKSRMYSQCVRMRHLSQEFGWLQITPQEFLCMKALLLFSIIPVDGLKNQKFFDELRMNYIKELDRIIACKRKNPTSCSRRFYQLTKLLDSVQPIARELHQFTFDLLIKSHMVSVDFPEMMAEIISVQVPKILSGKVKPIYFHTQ
- assay-procedure: C2C12 AR/ARE reporter assay
- Format: cell-based
- experimental-context: C2C12 EC50(nM), mouse myoblast C2C12 cells, luciferase reporter, 48 h; average
- Experimental: As an indicator of agonist activity in muscle tissue, the C2C12 AR/ARE reporter assay is performed. Briefly, mouse myoblast C2C12 cells are co-transfected using FuGENE™. […] Cells are transfected in T150 cm^2 flasks in DMEM media with 4% or 10% Fetal Bovine Serum (FBS). […] After 48 h of incubations with compounds, cells are lysed and luciferase activity is determined using standard techniques. […] The % efficacy is determined versus maximum stimulation obtained with 10 nM methyltrienolone. […]
Entries whose EC50 is below 10 nM take True; entries at or above 10 nM take False.

molecule	class-name
Cc1c(N2CCCC2c2nnco2)ccc(C#N)c1Cl (stereo not drawn)	True
Cc1nnc(C2CCCN2c2ccc(C#N)c(Cl)c2C)o1 (stereo not drawn)	True
CCC1CCC(c2ccccc2)N1c1ccc(C#N)c(Cl)c1 (mixture of isomers) [Example 22]	False
CC1(C)CC(c2ccc3c(c2)OCO3)N(c2ccc(C#N)c(Cl)c2)C1 (stereo not drawn)	False
Cc1c(N2CCCC2c2ccc(F)cc2)ccc(C#N)c1Cl (stereo not drawn)	True
Cc1c(N2CC(O)CC2c2ccccc2)ccc(C#N)c1Cl (stereo not drawn)	False
Cc1c(N2CCCC2c2ccc(Cl)cc2)ccc(C#N)c1Cl (stereo not drawn)	False
Cc1c(N2CCCC2c2nnc(N)o2)ccc(C#N)c1Cl (stereo not drawn)	False

IN: Hi there! Is EC50 for Cc1c(N2CC(C)(C)CC2c2ccccc2)ccc(C#N)c1Cl (stereo not drawn) below 10 nM, do you know?
OUT: False

IN: Hello, I'm reviewing records and need to know if EC50 of COc1cccc(C2CCCN2c2ccc(C#N)c(Cl)c2C)c1 (stereo not drawn) is below 10 nM. Could you check?
OUT: True

IN: # TODO verify EC50 < 10 nM strictly for this molecule: COc1ccccc1C1CCCN1c1ccc(C#N)c(Cl)c1C (stereo not drawn)
OUT: False

IN: Quick check: EC50 of CCC1CCC(c2ccccc2)N1c1ccc(C#N)c(Cl)c1 (single isomer, unassigned) [Example 22c] under 10 nM?
OUT: False

----------
- tested-target: human androgen receptor (AR) (Homo sapiens, UniProt P10275)
- Construct: expressed in transfected cells; host or cells: mouse myoblast C2C12 cells, transiently co-transfected with FuGENE
- Sequence (P10275 1-920): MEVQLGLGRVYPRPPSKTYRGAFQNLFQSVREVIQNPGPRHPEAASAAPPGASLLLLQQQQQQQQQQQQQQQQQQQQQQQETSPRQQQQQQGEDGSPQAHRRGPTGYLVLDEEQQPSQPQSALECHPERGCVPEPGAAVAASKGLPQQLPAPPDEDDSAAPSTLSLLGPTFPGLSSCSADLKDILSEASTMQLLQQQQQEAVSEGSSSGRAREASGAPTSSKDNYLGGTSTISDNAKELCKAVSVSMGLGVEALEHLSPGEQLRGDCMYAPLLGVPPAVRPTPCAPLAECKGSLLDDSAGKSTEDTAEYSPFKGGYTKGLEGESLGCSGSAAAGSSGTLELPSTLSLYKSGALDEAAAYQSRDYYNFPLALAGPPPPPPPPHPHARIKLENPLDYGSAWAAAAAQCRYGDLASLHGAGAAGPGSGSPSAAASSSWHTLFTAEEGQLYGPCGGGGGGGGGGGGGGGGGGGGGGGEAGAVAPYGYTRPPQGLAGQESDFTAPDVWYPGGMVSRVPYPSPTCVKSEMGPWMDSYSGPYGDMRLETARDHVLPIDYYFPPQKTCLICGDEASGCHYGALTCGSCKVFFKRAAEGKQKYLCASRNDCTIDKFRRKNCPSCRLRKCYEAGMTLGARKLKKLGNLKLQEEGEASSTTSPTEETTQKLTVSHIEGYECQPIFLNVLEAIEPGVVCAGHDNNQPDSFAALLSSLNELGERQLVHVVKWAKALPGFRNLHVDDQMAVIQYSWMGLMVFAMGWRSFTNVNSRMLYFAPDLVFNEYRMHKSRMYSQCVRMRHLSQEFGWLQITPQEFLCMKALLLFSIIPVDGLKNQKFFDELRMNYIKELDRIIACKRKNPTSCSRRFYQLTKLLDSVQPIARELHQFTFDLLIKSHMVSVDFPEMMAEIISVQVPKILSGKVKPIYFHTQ
- assay-procedure: C2C12 AR/ARE reporter assay
- Format: cell-based
- experimental-context: C2C12, read-out: C2C12 % Efficacy, versus maximum stimulation obtained with 10 nM methyltrienolone; average
The entries below come with measured Emax values attached.
Form entry: value (%) — number only.

molecule	tested-target	Emax, %
N#Cc1ccc(N2CCCC2c2cccnc2)cc1Cl (stereo not shown) [Example 16]	human androgen receptor (AR) (Homo sapiens, UniProt P10275)	42.6

Reported Emax ( Cc1c(N2CCCC2c2ccc(Cl)cc2)ccc(C#N)c1Cl (stereo not shown) [Example 2] ) = 61

The reported Emax of the molecule Cc1c(N2CCCC2c2ccc(F)cc2)ccc(C#N)c1Cl (stereo not shown) [Example 3] was 51.1

// sample Cc1c(N2CCCC2c2cccc(S(C)(=O)=O)c2)ccc(C#N)c1Cl (stereo not shown) [Example 21] , its Emax was 58.1

The molecule listed as Cc1c(N2CCCC2c2ccncc2)ccc(C#N)c1Cl (stereo not shown) [Example 11] has a reported Emax of 76.8

Form field Emax, entry Cc1nnc(C2CCCN2c2ccc(C#N)c(Cl)c2C)[nH]1 (stereo not shown) [Example 29] : 83.9

Entry under test: Cc1c(N2CCCC2c2ccccc2)ccc(C#N)c1Cl (stereo not shown) [Example 1] . Its Emax was 67.6

Measured Emax of Cc1c(N2CCCC2c2cccnc2)ccc(C#N)c1Cl (stereo not shown) [Example 9] : 90.7

Record CCC1CCC(c2ccccc2)N1c1ccc(C#N)c(Cl)c1C (mixture of isomers) [Example 23] , field Emax: 70.1

Form field Emax, entry CC1(c2ccc3c(c2)OCO3)CCCN1c1ccc(C#N)c(Cl)c1 (stereo not shown) [Example 17] : 13.2

----------
- tested-target: human androgen receptor (AR) (Homo sapiens, UniProt P10275)
- Construct: expressed in transfected cells; host or cells: mouse myoblast C2C12 cells, transiently co-transfected with FuGENE
- assay-procedure: C2C12 AR/ARE reporter assay
- Assay type: cell-based
- experimental-context: C2C12, read-out: C2C12 % Efficacy, versus maximum stimulation obtained with 10 nM methyltrienolone; average
metric: Emax
Respond with the figure and its unit, in that order.

# count of solved cases: 3
compound	metric	result
Cc1c(N2CCCC2c2nnco2)ccc(C#N)c1Cl (stereo not shown)	Emax	82.7%
CCC1CCC(c2ccccc2)N1c1ccc(C#N)c(Cl)c1 (mixture of isomers)	Emax	85.5%
CSc1ccc(C2CCCN2c2ccc(C#N)c(Cl)c2C)cc1 (stereo not shown)	Emax	73.1%

Value of measured Emax for the entry Cc1c(N2CCCC2c2ccc3c(c2)OCO3)ccc(C#N)c1Cl (stereo not shown) : 95.6%

// field: Emax; key: Cc1c(N2CCCC2c2nnc(N)o2)ccc(C#N)c1Cl (stereo not shown) ; value = 95.7%
